compounds and their reported pEC50
Biological target: Multidrug resistance-associated protein 1 (Homo sapiens, UniProt P33527)
Sequence (P33527 whole entry): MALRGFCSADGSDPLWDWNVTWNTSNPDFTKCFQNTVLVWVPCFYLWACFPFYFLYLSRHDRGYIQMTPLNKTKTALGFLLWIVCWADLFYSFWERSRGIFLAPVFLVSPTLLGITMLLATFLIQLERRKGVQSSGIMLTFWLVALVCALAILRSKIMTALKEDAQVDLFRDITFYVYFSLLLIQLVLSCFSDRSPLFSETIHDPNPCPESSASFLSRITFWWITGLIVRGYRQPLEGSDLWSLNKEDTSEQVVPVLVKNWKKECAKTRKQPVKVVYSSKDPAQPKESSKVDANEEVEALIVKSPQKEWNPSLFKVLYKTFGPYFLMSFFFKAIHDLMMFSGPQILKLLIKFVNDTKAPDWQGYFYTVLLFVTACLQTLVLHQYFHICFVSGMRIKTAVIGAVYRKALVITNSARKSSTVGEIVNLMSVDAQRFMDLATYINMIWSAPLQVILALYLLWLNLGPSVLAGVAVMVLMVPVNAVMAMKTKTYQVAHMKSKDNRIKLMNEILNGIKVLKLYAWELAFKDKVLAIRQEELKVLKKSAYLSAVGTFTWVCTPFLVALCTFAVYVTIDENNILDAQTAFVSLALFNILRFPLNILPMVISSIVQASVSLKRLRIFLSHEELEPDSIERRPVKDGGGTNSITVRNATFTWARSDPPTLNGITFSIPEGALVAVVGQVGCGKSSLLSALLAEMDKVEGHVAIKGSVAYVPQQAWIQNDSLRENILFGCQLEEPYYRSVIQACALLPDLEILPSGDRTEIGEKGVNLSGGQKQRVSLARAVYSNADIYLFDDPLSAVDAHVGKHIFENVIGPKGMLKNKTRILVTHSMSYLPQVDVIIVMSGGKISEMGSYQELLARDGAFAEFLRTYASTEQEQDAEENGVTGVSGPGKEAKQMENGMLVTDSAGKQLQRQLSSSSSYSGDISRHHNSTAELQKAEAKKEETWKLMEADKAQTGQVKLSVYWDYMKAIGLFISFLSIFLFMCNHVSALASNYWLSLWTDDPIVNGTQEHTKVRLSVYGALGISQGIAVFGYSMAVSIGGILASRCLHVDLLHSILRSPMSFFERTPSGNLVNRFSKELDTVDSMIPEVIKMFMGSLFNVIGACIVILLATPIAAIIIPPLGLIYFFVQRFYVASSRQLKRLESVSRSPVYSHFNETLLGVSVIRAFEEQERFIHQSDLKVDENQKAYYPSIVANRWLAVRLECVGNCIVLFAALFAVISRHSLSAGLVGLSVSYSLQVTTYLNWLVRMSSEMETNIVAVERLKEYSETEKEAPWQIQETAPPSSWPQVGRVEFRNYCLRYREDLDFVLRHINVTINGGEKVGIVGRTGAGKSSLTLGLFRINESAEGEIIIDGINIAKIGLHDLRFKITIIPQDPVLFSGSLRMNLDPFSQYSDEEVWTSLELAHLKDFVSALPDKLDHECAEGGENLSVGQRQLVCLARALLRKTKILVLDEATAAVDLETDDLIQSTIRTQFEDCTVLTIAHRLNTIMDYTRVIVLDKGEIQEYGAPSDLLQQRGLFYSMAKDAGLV
Assay: Activity at MRP1 (unknown origin) expressed in MDCK cells using calcein AM as substrate incubated for 30 mins prior to substrate addition measured after 30 mins by fluorometric analysis
Lab note: report pEC50 as minus log10 of the concentration in molar units, number only.

Name the recorded pEC50 of the item `COc1ccc(-c2ccc(CN3CCc4cc(OC)c(OC)cc4C3)cc2)cc1` in your answer. 4.68

// switching to the query compound
For the compound `COc1ccc(-c2nc(CN3CCc4cc(OC)c(OC)cc4C3)cs2)cc1` , report pEC50. 5.57

----------
Below, each of the compounds is paired with its reported pEC50 value.
Biological target: UniProtKB P08183
Experiment: Activity at MDR1 (unknown origin) expressed in MDCK cells using calcein AM as substrate incubated for 30 mins prior to substrate addition measured after 30 mins by fluorometric analysis
Note: pEC50 values are expressed as the negative base-10 logarithm of concentration in M.

Example cases with answers are listed next.
For `COc1cc2c(cc1OC)CN(Cc1ccc(Oc3ccc(-c4nc(-c5cccc(O)c5)cs4)cn3)cc1)CC2` , write its pEC50. 6.60

In one line, give reported pEC50 of the entry `COc1cc2c(cc1OC)CN(Cc1ccc(Oc3ccc(-c4nc(-c5ccc([N+](=O)[O-])cc5)cs4)cn3)cc1)CC2` . 6.29

New cases:
Given the compound `COc1ccc(-c2nc(CN3CCc4cc(OC)c(OC)cc4C3)cs2)cc1` , write its reported pEC50. 5.71

----------
Quick reference for pEC50 among some compounds
Biological target: Multidrug resistance-associated protein 1 (Homo sapiens, UniProt P33527)
Assay: Activity at MRP1 (unknown origin) expressed in MDCK cells using calcein AM as substrate incubated for 30 mins prior to substrate addition measured after 30 mins by fluorometric analysis
Format: cell-based
pEC50: −log10 of the molar value.

// known answers, use as guide
Give Multidrug resistance-associated protein 1 (Homo sapiens, UniProt P33527) pEC50 for the following compound: `COc1cc2c(cc1OC)CN(Cc1ccc(Oc3ccc(-c4nc(-c5ccc(F)cc5)cs4)cn3)cc1)CC2` < 4.00

State measured pEC50 of the compound `COc1cc2c(cc1OC)CN(Cc1ccc(Oc3ccc(-c4nc(-c5ccc([N+](=O)[O-])cc5)cs4)cn3)cc1)CC2` with Multidrug resistance-associated protein 1 (Homo sapiens, UniProt P33527). < 4.00

# next compound below
GET pEC50 where system = Multidrug resistance-associated protein 1 (Homo sapiens, UniProt P33527) and item = `COc1cccc(-c2csc(-c3ccc(Oc4ccc(CN5CCc6cc(OC)c(OC)cc6C5)cc4)nc3)n2)c1` < 4.00

----------
Target: ATP-dependent translocase ABCB1 (Homo sapiens)
Sequence (P08183 whole entry): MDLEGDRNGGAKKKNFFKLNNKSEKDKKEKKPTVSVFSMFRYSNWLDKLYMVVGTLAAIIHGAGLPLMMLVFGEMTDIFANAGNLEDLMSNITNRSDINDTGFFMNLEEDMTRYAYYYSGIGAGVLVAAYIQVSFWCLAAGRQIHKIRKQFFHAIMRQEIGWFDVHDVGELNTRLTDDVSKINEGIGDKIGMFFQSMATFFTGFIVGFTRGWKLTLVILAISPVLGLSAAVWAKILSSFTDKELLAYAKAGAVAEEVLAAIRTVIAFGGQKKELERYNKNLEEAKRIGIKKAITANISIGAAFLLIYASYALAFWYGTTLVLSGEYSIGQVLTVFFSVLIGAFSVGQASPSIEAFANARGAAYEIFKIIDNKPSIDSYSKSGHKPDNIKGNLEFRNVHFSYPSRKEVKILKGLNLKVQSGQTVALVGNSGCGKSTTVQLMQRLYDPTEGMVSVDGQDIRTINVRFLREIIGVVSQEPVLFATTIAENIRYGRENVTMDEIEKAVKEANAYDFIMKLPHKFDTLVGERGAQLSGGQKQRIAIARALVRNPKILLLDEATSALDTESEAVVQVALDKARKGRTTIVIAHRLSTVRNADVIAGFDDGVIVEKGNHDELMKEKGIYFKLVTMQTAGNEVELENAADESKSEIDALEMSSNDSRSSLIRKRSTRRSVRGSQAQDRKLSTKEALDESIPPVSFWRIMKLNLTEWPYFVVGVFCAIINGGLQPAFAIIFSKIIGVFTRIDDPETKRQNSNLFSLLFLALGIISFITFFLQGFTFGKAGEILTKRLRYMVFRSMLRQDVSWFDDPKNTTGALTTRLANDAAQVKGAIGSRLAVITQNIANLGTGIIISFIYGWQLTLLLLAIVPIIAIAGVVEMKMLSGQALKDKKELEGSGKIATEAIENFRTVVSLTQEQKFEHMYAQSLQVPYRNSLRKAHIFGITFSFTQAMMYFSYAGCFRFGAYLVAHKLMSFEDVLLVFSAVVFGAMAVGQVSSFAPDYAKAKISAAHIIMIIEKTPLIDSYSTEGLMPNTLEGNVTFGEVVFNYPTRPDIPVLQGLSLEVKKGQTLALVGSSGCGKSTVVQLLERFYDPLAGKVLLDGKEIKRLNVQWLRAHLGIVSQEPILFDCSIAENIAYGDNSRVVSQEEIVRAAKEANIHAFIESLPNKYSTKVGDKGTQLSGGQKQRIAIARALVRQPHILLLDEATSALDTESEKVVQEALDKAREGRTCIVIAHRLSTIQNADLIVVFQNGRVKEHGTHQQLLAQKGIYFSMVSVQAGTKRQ
Assay: Activity at MDR1 (unknown origin) expressed in MDCK cells using calcein AM as substrate incubated for 30 mins prior to substrate addition measured after 30 mins by fluorometric analysis
observable: EC50 (nM)
Record the value in nM, omitting the unit from your answer.

Example compounds with recorded EC50:
Specify reported EC50 for the compound shown: `COc1cc2c(cc1OC)CN(Cc1ccc(Oc3ccc(C(N)=O)cn3)cc1)CC2` 19000

For `COc1cccc(-c2csc(-c3ccc(Oc4ccc(CN5CCc6cc(OC)c(OC)cc6C5)cc4)nc3)n2)c1` , write its EC50. 950

Specify reported EC50 for the compound shown: `COc1cc2c(cc1OC)CN(Cc1ccc(Oc3ccc(-c4nc(-c5ccc(F)cc5)cs4)cn3)cc1)CC2` 410

Kindly indicate its recorded EC50. Item: `COc1ccc(-c2ccc(CN3CCc4cc(OC)c(OC)cc4C3)cc2)cc1` 600

Switching to the query record.
In one line, give reported EC50 of the entry `COc1cc2c(cc1OC)CN(Cc1ccc(Oc3ccc(C(N)=S)cn3)cc1)CC2` . 11000

----------
Assay: Efflux ratio of apparent permeability from basolateral to apical to apical to basolateral side of human Caco2 cells after 120 mins
Assay type: ADME, cell-based
Conditions: Caco-2
# key: entry, value: efflux ratio at 2 h
Respond with the number and no other words.

Worked cases, answers included:
Check the records and state efflux ratio at 2 h for `COc1cc2c(cc1OC)CN(Cc1ccc(Oc3ccc(-c4nc(-c5ccc(F)cc5)cs4)cn3)cc1)CC2` 4.5

Output measured efflux ratio at 2 h for this item: `COc1cc2c(cc1OC)CN(Cc1ccc(Oc3ccc(-c4nc(-c5cccc(O)c5)cs4)cn3)cc1)CC2` 0.9

Provide efflux ratio at 2 h value for the following molecule: `COc1ccc(-c2ccc(CN3CCc4cc(OC)c(OC)cc4C3)cc2)cc1` 2.6

Identify measured efflux ratio at 2 h corresponding to `COc1cc2c(cc1OC)CN(CCc1ccc(NC(=O)c3cc(OC)c(OC)cc3NC(=O)c3cnc4ccccc4c3)cc1)CC2` 22

Note down efflux ratio at 2 h recorded for `COc1ccc(-c2nc(CN3CCc4cc(OC)c(OC)cc4C3)cs2)cc1` 6.1

---
Please list efflux ratio at 2 h recorded for the molecule `COc1cc2c(cc1OC)CN(Cc1ccc(Oc3ccc(-c4nc(-c5ccc([N+](=O)[O-])cc5)cs4)cn3)cc1)CC2` 2.7

Return efflux ratio at 2 h for the following molecule: `COc1cc2c(cc1OC)CN(CC/C=C1\CCCc3c(OC)cccc31)CC2` 1.64

Output measured efflux ratio at 2 h for this item: `COc1cccc(-c2csc(-c3ccc(Oc4ccc(CN5CCc6cc(OC)c(OC)cc6C5)cc4)nc3)n2)c1` 2.5

----------
Target: MDR1 (ABCB1, P-gp) (Homo sapiens)
Sequence (P08183 whole entry): as the sequence (P08183 whole entry) above
Test: Activity at MDR1 (unknown origin) expressed in MDCK cells assessed as ATPase activity at 50 uM after 2 hrs by ATPlite assay
Assay type: cell-based
Conditions: MDCK cells expressing MDR1, read-out: Activity
Each entry below carries its recorded activity at 2 h, 50 µM.
Just the number in %, nothing appended.

// below: answered molecules
Give measured activity at 2 h, 50 µM for `COc1cccc(-c2csc(-c3ccc(Oc4ccc(CN5CCc6cc(OC)c(OC)cc6C5)cc4)nc3)n2)c1` (MDR1 (ABCB1, P-gp) (Homo sapiens)). 20

Give activity at 2 h, 50 µM; test system MDR1 (ABCB1, P-gp) (Homo sapiens); molecule `COc1cc2c(cc1OC)CN(Cc1ccc(Oc3ccc(-c4nc(-c5cccc(O)c5)cs4)cn3)cc1)CC2` 20

Retrieve activity at 2 h, 50 µM on MDR1 (ABCB1, P-gp) (Homo sapiens); query `COc1cc2c(cc1OC)CN(Cc1ccc(Oc3ccc(-c4nc(-c5ccc(F)cc5)cs4)cn3)cc1)CC2` 18

Continuing:
Name the value of activity at 2 h, 50 µM reported for `COc1cc2c(cc1OC)CN(Cc1ccc(Oc3ccc(-c4nc(-c5ccc([N+](=O)[O-])cc5)cs4)cn3)cc1)CC2` when tested on MDR1 (ABCB1, P-gp) (Homo sapiens). 16

Provide activity at 2 h, 50 µM, tested on MDR1 (ABCB1, P-gp) (Homo sapiens), for `COc1cc2c(cc1OC)CN(CCc1ccc(NC(=O)c3cc(OC)c(OC)cc3NC(=O)c3cnc4ccccc4c3)cc1)CC2` . 30

----------
Biological target: Broad substrate specificity ATP-binding cassette transporter ABCG2 (Homo sapiens)
Sequence (Q9UNQ0 whole entry): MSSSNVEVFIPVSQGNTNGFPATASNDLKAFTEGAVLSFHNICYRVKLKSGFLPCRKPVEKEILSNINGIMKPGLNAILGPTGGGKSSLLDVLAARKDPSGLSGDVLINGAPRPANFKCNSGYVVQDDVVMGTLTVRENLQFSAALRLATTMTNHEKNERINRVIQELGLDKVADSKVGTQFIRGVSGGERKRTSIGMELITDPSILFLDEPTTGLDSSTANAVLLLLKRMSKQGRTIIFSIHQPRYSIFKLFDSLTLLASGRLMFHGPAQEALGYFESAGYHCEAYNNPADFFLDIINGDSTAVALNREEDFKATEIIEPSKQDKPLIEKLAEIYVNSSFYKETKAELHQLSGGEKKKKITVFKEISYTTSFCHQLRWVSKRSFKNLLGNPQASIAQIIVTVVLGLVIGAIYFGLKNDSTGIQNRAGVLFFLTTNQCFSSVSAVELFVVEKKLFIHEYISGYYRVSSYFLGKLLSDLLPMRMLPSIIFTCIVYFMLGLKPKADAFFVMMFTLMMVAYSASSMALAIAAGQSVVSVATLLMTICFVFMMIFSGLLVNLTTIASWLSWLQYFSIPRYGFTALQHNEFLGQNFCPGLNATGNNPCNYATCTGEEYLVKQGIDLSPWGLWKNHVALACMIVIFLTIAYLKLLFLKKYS
Assay: Activity at BCRP (unknown origin) expressed in MDCK cells using […] as substrate incubated for 30 mins prior to substrate addition measured after 30 mins by fluorometric analysis
observable: pEC50
API: returns pEC50 as number; meaning -log10 of concentration in mol/L.

// solved cases for pEC50 follow
Report pEC50, nothing else, for this compound: `COc1ccc(-c2ccc(CN3CCc4cc(OC)c(OC)cc4C3)cc2)cc1` 4.82

Please indicate pEC50 recorded for `COc1cc2c(cc1OC)CN(Cc1ccc(Oc3ccc(-c4nc(-c5ccc(F)cc5)cs4)cn3)cc1)CC2` 6.00

Please give measured pEC50 of the following entry: `COc1cc2c(cc1OC)CN(Cc1ccc(Oc3ccc(-c4nc(-c5cccc(O)c5)cs4)cn3)cc1)CC2` 7.74

Please look at this compound and report its pEC50: `COc1cc2c(cc1OC)CN(Cc1ccc(Oc3ccc(-c4nc(-c5ccc([N+](=O)[O-])cc5)cs4)cn3)cc1)CC2` 5.00

Note pEC50 for the compound shown: `COc1cccc(-c2csc(-c3ccc(Oc4ccc(CN5CCc6cc(OC)c(OC)cc6C5)cc4)nc3)n2)c1` 6.30

---
Determine its reported pEC50: `COc1ccc(-c2nc(CN3CCc4cc(OC)c(OC)cc4C3)cs2)cc1` 4.52

Retrieve pEC50 measured for `COc1cc2c(cc1OC)CN(CC/C=C1\CCCc3c(OC)cccc31)CC2` and print it. 4.05

----------
In this section, each of the compounds is paired with its reported EC50.
Molecular target: Multidrug resistance-associated protein 1 (Homo sapiens, UniProt P33527)
Test: Activity at MRP1 (unknown origin) expressed in MDCK cells using calcein AM as substrate incubated for 30 mins prior to substrate addition measured after 30 mins by fluorometric analysis

Here is how some compounds turned out for EC50.
Report EC50 on Multidrug resistance-associated protein 1 (Homo sapiens, UniProt P33527) for this entry: `COc1cc2c(cc1OC)CN(Cc1ccc(Oc3ccc(C(N)=S)cn3)cc1)CC2` > 100 µM

Fill in: EC50 on Multidrug resistance-associated protein 1 (Homo sapiens, UniProt P33527), entry `COc1cc2c(cc1OC)CN(Cc1ccc(Oc3ccc(-c4nc(-c5cccc(O)c5)cs4)cn3)cc1)CC2` > 100 µM

Consider now this further compound.
Give EC50 only, for `COc1cc2c(cc1OC)CN(Cc1ccc(Oc3ccc(C(N)=O)cn3)cc1)CC2` , using Multidrug resistance-associated protein 1 (Homo sapiens, UniProt P33527) data. > 100 µM

Where do these numbers come from? They come from ChEMBL document CHEMBL2331297.
